# tgt: vesicular monoamine transporter 2 (VMAT2) (Homo sapiens)
# Construct: human VMAT2 stably expressed in HEK293 cells (HEK-hVMAT2), pcDNA3.1
# Sequence (Q05940 whole entry): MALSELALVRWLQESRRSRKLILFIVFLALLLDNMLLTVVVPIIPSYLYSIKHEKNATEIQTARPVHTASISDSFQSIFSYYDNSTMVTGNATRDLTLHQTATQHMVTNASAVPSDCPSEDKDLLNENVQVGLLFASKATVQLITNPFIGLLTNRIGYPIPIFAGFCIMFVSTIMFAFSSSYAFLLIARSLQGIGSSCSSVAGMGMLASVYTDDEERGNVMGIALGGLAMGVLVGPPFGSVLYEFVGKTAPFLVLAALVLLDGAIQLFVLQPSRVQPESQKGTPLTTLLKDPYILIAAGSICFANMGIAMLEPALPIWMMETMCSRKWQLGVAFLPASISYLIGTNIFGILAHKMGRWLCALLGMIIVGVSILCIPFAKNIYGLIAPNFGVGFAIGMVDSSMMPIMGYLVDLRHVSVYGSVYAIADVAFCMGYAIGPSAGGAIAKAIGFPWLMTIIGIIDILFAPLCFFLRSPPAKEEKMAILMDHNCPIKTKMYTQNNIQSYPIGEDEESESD
# assay: inhibition of vesicular 3H-dopamine uptake in HEK-hVMAT2 cell fractions
measuredQuantity: pIC50
pIC50 is defined as minus the log10 of a concentration measured in mol/L.

Recorded pIC50 (compound O=S(=O)(O)C(F)(F)C(F)(F)C(F)(F)C(F)(F)C(F)(F)C(F)(F)C(F)(F)C(F)(F)F ): 5.34
